Target: T1, full-length β-Catenin (UniProt P35222 2-781, limits assumed)
T1 construct: mature; also called beta-catenin; beta-Catenin
T1 sequence (looked up): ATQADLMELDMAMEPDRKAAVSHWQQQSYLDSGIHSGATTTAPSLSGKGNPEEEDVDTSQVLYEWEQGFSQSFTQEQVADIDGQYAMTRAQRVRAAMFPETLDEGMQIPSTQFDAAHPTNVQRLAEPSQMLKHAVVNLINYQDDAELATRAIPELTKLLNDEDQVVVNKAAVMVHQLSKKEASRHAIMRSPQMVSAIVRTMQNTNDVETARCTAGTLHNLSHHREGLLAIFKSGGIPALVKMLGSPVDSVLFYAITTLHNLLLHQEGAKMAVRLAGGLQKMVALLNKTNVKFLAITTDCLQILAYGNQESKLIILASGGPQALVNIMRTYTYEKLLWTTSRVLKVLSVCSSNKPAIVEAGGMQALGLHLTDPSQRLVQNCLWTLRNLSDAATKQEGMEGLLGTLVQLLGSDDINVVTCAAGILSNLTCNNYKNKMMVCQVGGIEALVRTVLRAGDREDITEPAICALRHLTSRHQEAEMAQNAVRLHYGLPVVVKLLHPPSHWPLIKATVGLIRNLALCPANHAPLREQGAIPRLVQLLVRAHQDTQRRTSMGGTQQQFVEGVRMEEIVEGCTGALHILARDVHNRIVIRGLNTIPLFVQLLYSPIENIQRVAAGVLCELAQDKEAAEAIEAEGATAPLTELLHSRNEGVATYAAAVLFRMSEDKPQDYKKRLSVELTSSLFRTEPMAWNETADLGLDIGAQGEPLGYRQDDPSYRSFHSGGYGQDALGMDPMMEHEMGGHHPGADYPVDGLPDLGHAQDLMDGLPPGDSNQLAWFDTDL
Experiment: competition fluorescence polarization vs FITC-Axin peptide probe on full-length beta-catenin
Positions of bridges follow the written chain, without caps; N, C: chain ends. No end group written: not given here. Linker 15a = not defined here; Linker 15b = not defined here; Linker 11 = not defined here; Linker 13 = not defined here; Linker 16 = not defined here; Linker 7 = not defined here
QUANTITY: log10 EC50 (log10 of the value in µM)
Heads up: the numbers are on a log10 scale; they represent EC50 in µM.

Known results for binders:
| BINDER | log10 EC50 |
| --- | --- |
| ADPALWACEHAALICETQ (linker 8-15 via Linker 13 (inferred); reading uncertain, synthetic cysteine-stapled peptide) [Peptide ID 43, ADPALWACEHAALICETQ, staple type Linker 13] | 0.66 |
| ADPALWACEHAALICETQ (linker 8-15 via Linker 15a (inferred); reading uncertain, synthetic cysteine-stapled peptide) [Peptide ID 44, ADPALWACEHAALICETQ, staple type Linker 15a] | 0.87 |
| ADPAYWLCEHAALICEVE (linker 8-15 via Linker 7 (inferred); reading uncertain, synthetic cysteine-stapled peptide) [Peptide ID 13, ADPAYWLCEHAALICEVE, staple type Linker 7] | -0.34 |
| ADPALWACEHAALICETQ (linker 8-15 via Linker 16 (inferred); reading uncertain, synthetic cysteine-stapled peptide) [Peptide ID 46, ADPALWACEHAALICETQ, staple type Linker 16] | 0.76 |
| ADPALWACEHAALICETQ (linker 8-15 via Linker 11 (inferred); reading uncertain, synthetic cysteine-stapled peptide) [Peptide ID 41, ADPALWACEHAALICETQ, staple type Linker 11] | 0.48 |

Working through the 2 binders below one at a time, give log10 EC50 for each.
1. ADPALWACEHAALICETQ (linker 8-15 via Linker 15b (inferred); reading uncertain, synthetic cysteine-stapled peptide) [Peptide ID 45, ADPALWACEHAALICETQ, staple type Linker 15b]
2. ADPADWECEHAALICDAM (linker 8-15 via Linker 7 (inferred); reading uncertain, synthetic cysteine-stapled peptide) [Peptide ID 12, ADPADWECEHAALICDAM, staple type Linker 7]

Response line:
[0.75, -0.09]
